Cited source: ChEMBL document CHEMBL2151015

- experiment_notes: Oral bioavailability in mouse at 1 to 3 mg/kg
- Assay type: ADME, organism-based
- settings: in vivo
readout_label: bioavailability

Tell us which bioavailability value is on record for CCCSc1nc(N2CCC[C@@H](CC(=O)O)C2)ccc1C(=O)NC1CCCCC1 [AZD-4017]
> 100%

---

- experiment_notes: Half life in mouse at 1 to 3 mg/kg, iv
- Format: ADME, organism-based
- Set-up: dose 1-3 mg/kg, route intravenous
- settings: in vivo
readout_label: half-life (h)
Your answer is read as h, so omit the unit and give the number.

Tell us which half-life value is on record for CCCSc1nc(N2CCC[C@@H](CC(=O)O)C2)ccc1C(=O)NC1CCCCC1 [AZD-4017]
4.2

---

- target_entity: 17-beta-hydroxysteroid dehydrogenase type 3 (Homo sapiens, UniProt P37058)
- Sequence (P37058 whole entry): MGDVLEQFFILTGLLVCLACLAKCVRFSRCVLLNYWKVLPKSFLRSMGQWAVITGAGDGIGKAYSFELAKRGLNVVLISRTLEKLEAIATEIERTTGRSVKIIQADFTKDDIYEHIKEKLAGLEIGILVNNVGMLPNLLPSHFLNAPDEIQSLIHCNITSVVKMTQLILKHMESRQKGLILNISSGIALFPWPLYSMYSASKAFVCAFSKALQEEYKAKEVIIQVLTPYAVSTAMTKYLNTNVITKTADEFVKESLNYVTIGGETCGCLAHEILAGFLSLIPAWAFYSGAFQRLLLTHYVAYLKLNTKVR
- experiment_notes: Inhibition of recombinant 17betaHSD3 using [3H]androstenedione as substrate after 90 mins by flow scintillation analysis
readout_label: IC50

Tell us which IC50 value is on record for CCCSc1nc(N2CCC[C@@H](CC(=O)O)C2)ccc1C(=O)NC1CCCCC1
> 30 µM

---

- experiment_notes: Octanol-buffer partition coefficient, log D of the compound after 30 mins by shake flask method at pH 7.4
- settings: octanol/water
logD at 0.5 h: recorded values
Enter the number alone.

Here is how some molecules turned out for logD at 0.5 h.
{"smiles_entry": "CCCSc1ncccc1C(=O)N(C)[C@@H]1[C@@H]2CC3C[C@H]1C[C@@](O)(C3)C2", "logD at 0.5 h": 2.5}
{"smiles_entry": "CCCSc1ncccc1C(=O)N(C)[C@H]1[C@@H]2CC3C[C@H]1C[C@@](O)(C3)C2", "logD at 0.5 h": 2.5}

Tell us which logD at 0.5 h value is on record for CCCN(C)c1nc(N2CCC[C@@H](CC(=O)O)C2)ccc1C(=O)NC1CCCCC1
2.3

Tell us which logD at 0.5 h value is on record for CCCSc1nc(N2CCC(C(=O)O)CC2)ccc1C(=O)NC1CCCCC1
1.6

---

- experiment_notes: Apparent permeability from apical to basal side of MDCK cells at 10 uM
- Assay type: ADME, cell-based, Canis lupus familiaris
- settings: dog
readout_label: Papp A→B at 10 µM (×10⁻⁶ cm/s)
Your answer is read as ×10⁻⁶ cm/s, so omit the unit and give the number.

Tell us which Papp A→B at 10 µM value is on record for CCCSc1nc(N2CCC[C@@H](CC(=O)O)C2)ccc1C(=O)NC1CCCCC1
29

---

- experiment_notes: Cmax in po dosed Sprague-Dawley rat pre-dosed with ABT administered 2 hrs […] measured up to 24 hrs
- Format: ADME, organism-based
- Parameters: route oral
- settings: in vivo
readout_label: Cmax

Tell us which Cmax value is on record for CCCSc1ncccc1C(=O)NC1CCCCC1
514 ng/mL

---

- experiment_notes: Volume of distribution at steady state in rat at 1 to 3 mg/kg
- Assay type: ADME, organism-based
- Set-up: dose 1-3 mg/kg
- settings: in vivo, read-out: Vdss
readout_label: Vd (L/kg)
Your answer is read as L/kg, so omit the unit and give the number.

Tell us which Vd value is on record for CCCSc1nc(N2CCC[C@@H](CC(=O)O)C2)ccc1C(=O)NC1CCCCC1 [AZD-4017]
2.6
